Where these numbers come from: patent US20250179045A1

biological target: human LPA1 (Homo sapiens, UniProt Q92633); test: In vitro functional assay of lysophosphatidic acid receptor 1 activity (calcium flux); assay type: cell-based; settings: B103 cells stably expressing human LPA1; Fluo-4 NW calcium flux after lysophosphatidic acid (18:1) at EC80; compounds 100 pM to 10 μM; read-out: LPA1 IC50
Sequence (Q92633 whole entry): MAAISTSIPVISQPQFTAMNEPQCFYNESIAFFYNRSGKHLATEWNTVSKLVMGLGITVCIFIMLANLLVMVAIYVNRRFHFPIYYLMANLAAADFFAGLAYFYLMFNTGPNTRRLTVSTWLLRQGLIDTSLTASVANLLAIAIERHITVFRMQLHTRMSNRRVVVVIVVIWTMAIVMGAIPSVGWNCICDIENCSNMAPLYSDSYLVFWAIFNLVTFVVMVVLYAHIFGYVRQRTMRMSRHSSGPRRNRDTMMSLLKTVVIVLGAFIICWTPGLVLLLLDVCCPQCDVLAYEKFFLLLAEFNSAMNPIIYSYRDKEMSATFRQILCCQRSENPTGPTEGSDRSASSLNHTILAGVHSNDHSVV
Recorded metric: IC50

* COc1cc(Br)ccc1NC(=O)C1(c2ccccc2C(C)C)CNC(=O)C1 (stereo not shown) | 0.01 to 0.1 µM
* COc1ccc(NC(=O)[C@]2(c3ccccc3C(C)C)C[C@@H](Cc3nnn[nH]3)C2)c(OC(F)F)n1 | < 0.01 µM
* Cc1cc(OC(F)F)c(NC(=O)C2(c3ccccc3C(C)C)CC(O)(C(F)(F)C(=O)O)C2)cn1 (single isomer, unassigned) [Example 94-isomer A] | 0.1 to 1 µM

Turning now to a further record.
Query (compound): Cc1ccc(NC(=O)C2(c3ccccc3C(C)C)CC(O)(C(F)(F)C(=O)O)C2)c(OC(F)F)n1 (mixture of isomers) ; field requested: IC50
< 0.01 µM

---

biological target: human LPA1 (Homo sapiens); assay: In vitro functional assay of lysophosphatidic acid receptor 1 activity (calcium flux); format: cell-based; conditions: B103 cells stably expressing human LPA1; Fluo-4 NW calcium flux after lysophosphatidic acid (18:1) at EC80; compounds 100 pM to 10 μM; read-out: LPA1 IC50
Below: a set of entries, each annotated with reported IC50.

These recorded examples may help you get a feel for the data.
• COc1cc(C)ccc1NC(=O)C1(c2ccccc2C(C)C)CNC(=O)C1 (stereo not shown) [Example 101] = 10 to 100 nM
• CC(C)c1ccccc1C1(C(=O)Nc2ncc(Cl)cc2OC(F)F)CC(=O)N(C)C1 (single isomer, unassigned) = 100 to 1000 nM
• Cc1ccc(NC(=O)C2(c3ccccc3C(C)C)CC(C)(O)C2)c(OC(F)F)n1 (single isomer, unassigned) [Example 51-isomer B] = 100 to 1000 nM
• CCC1(O)CC(C(=O)Nc2ccc(C)nc2OC(F)F)(c2ccccc2C(C)C)C1 (stereo not shown) = 10 to 100 nM
• COc1ccc(NC(=O)C2(c3ccccc3C(C)C)CCC(S(C)(=O)=O)CC2)c(OC(F)F)n1 (stereo not shown) = 100 to 1000 nM
• CC(C)c1ccccc1C1(C(=O)Nc2ccc(Cl)cn2)CC(O)(C(F)(F)C(=O)O)C1 (single isomer, unassigned) [Example 93-isomer B] = 100 to 1000 nM

Turning now to a further record.
Query (compound): "COc1cc(OC(F)F)c(NC(=O)C2(c3ccccc3C(C)C)COC2)cn1" ; field requested: IC50
100 to 1000 nM

---

Below: a set of entries, each annotated with reported pIC50.
molecular target: human LPA1 (Homo sapiens); assay: In vitro functional assay of lysophosphatidic acid receptor 1 activity (calcium flux); assay type: cell-based; conditions: B103 cells stably expressing human LPA1; Fluo-4 NW calcium flux after lysophosphatidic acid (18:1) at EC80; compounds 100 pM to 10 μM; read-out: LPA1 IC50
pIC50: −log10 of the molar value.

* Cc1ccc(NC(=O)C2(c3ccccc3C(C)C)CC(N3CCC3=O)C2)c(OC(F)F)n1 (mixture of isomers) | 7.00 to 8.00
* COc1ccc(NC(=O)C2(c3ccccc3C(C)C)CCC(C#N)CC2)c(OC(F)F)n1 (mixture of isomers) | 7.00 to 8.00
* CC(C)Oc1cc(Cl)ncc1NC(=O)C1(c2ccccc2C(C)C)COC1 | 7.00 to 8.00
* Cc1ccc(NC(=O)C2(c3ccccc3C(C)C)CCC2)c(OC(F)F)n1 | < 6.00
* Cc1ccc(NC(=O)C2(c3ccccc3C(C)C)CC(=O)N(C)C2)c(OC(F)F)c1 (centres unmarked) | 7.00 to 8.00

Query (molecule): COc1ccc(NC(=O)C2(c3ccccc3C(C)C)CCC(S(N)(=O)=O)CC2)c(OC(F)F)n1 (centres unmarked) ; field requested: pIC50
6.00 to 7.00

Query (molecule): "COc1cc(Cl)cnc1NC(=O)C1(c2ccccc2C(C)C)COC1" ; field requested: pIC50
< 6.00

Query (molecule): "COc1ccc(NC(=O)[C@]2(c3ccccc3C(C)C)C[C@H](Cc3nnn[nH]3)C2)c(OC(F)F)n1" ; field requested: pIC50
7.00 to 8.00

Query (molecule): COc1ccc(NC(=O)C2(c3ccccc3C(C)C)CC(Cc3nnn[nH]3)C2)c(OC(F)F)n1 (centres unmarked) ; field requested: pIC50
> 8.00
